FYI, the data here is from PubChem BioAssay AID1963828.

compounds and their reported viability, T/C
- Tested on: 991263-137-R1-J2-PDC complex spheroid viability;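 further: spheroids exposed to compounds for 7 days before readout; 100% = DMSO vehicle control viability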
- protocol summary: Anticancer human tumor 991263-137-R1-J2-PDC patient-derived colon adenocarcinoma cell line growth inhibition [POLQ]
- recorded conditions: second compound 0.1 µM; first compound 0.316 µM; stronger effect = lower value
The answer is to be given in %; state only the numeric part.

Worked cases, answers included:
{"compound": "COc1ccc([C@@H](O)c2cc(-c3ncnc4cc(N5CCOCC5)ccc34)c(F)cc2Cl)nn1 + Cc1cccc(N(C)C(=O)C2C(O)CCN2c2nc(C)cc(C(F)(F)F)c2C#N)c1", "unit": "%", "viability, T/C": 98.1}
{"compound": "CCCS(=O)(=O)Nc1ccc(F)c(C(=O)c2c[nH]c3ncc(-c4ccc(Cl)cc4)cc23)c1F + Nc1ccc(C#CCN(C(=O)Cc2ncc(C(F)(F)F)cc2C(F)(F)F)c2ccc(F)cc2)nn1", "unit": "%", "viability, T/C": 97.2}
{"compound": "CC(C)n1c(=O)n(C)c2cnc3cc(F)c(-c4ccc(OCCCN5CCCCC5)nc4)cc3c21 + COC1C(OC(N)=O)C(O)C(Oc2ccc3c(O)c(NC(=O)c4ccc(O)c(CC=C(C)C)c4)c(=O)oc3c2C)OC1(C)C", "unit": "%", "viability, T/C": 116}
{"compound": "CC1COCCN1c1cc(-c2ccnn2C)c2ccnc(-c3ccn[nH]3)c2n1 (stereo not given) + Nc1ccc(C#CCN(C(=O)Cc2ncc(C(F)(F)F)cc2C(F)(F)F)c2ccc(F)cc2)nn1", "unit": "%", "viability, T/C": 69.5}

Shifting focus to the compound that follows.
Asked: Note down viability, T/C recorded for O=c1[nH]cc(F)c(=O)[nH]1 + Nc1ccc(C#CCN(C(=O)Cc2ncc(C(F)(F)F)cc2C(F)(F)F)c2ccc(F)cc2)nn1
Given back: 96
